assay: Quantitative High-Throughput drug screen in 47 multiple myeloma cell lines against the NCATS MIPE library collection: PCM6_Riken cell viability assay (AID 1919870); conditions: CellTiter-Glo ATP, 48 h; series mostly up to 45.8 µM; also: nearly all actives have a fitted effect of over 30% in size
Inconclusive results are not listed. Activity calls are given as the source filed them. Calls follow the shape of the dose curve; as a rule, active = well fitted cell-killing curve with a large enough effect; inconclusive = small, poorly fitted or top-dose-only effect, or effect the other way; inactive = no such curve, though single readings can be large or run the other way.
Classes used: class 1 for active, class 0 for inactive

INSERT INTO measurements (compound, assigned_label) VALUES
  ('N#Cc1c(O)c2c(-c3ccc(-c4ccccc4O)cc3)csc2[nH]c1=O', 'class 0'),
  ('CC(C)=CCCC(C)=CCCC(C)=CCSc1ccccc1C(=O)O', 'class 1'),
  ('Cc1ccc(CN2CCNCC2)cc1NC(=O)CNc1ccc(F)c(F)c1', 'class 0'),
  ('CCCNC(=O)Nc1ccc(Oc2ncnc3cc(OC)c(OC)cc23)cc1Cl', 'class 0'),
  ('CC1=C(CO)C(=O)O[C@@H]([C@@H](C)[C@H]2CC[C@H]3[C@@H]4C[C@H]5O[C@]56[C@@H](O)C=CC(=O)[C@]6(C)[C@@H]4CC[C@]23C)C1', 'class 1'),
  ('CC(C)CC(=O)Nc1n[nH]c2c1CN(C(=O)C1CCN(C)CC1)C2(C)C', 'class 1'),
  ('COc1cc2ncn(-c3cc(OCc4ccccc4C(F)(F)F)c(C(N)=O)s3)c2cc1OC', 'class 1'),
  ('C=CC(=O)Nc1cccc(Oc2nc(Nc3ccc(N4CCN(C)CC4)cc3)ncc2Cl)c1', 'class 1'),
  ('NC(=O)c1c(OCc2c(F)cc(Br)cc2F)nsc1NC(=O)NCCCCN1CCCC1', 'class 1'),
  ('CCCCN1CCC(CNC(=O)c2c3n(c4ccccc24)CCCO3)CC1', 'class 1'),
  ('Cc1cc(CN2CCN(c3c(Br)cnc4nc(-c5ccc(N6CCN(C)CC6)cc5)[nH]c34)CC2)no1', 'class 1'),
  ('CC(=O)SC[C@@H](C)C(=O)N1CCC[C@H]1C(=O)N[C@@H](Cc1ccccc1)C(=O)O', 'class 0'),
  ('Cc1[nH]nc2ccc(-c3cncc(OC[C@@H](N)Cc4ccccc4)c3)cc12', 'class 1'),
  ('COc1ccc(-c2cc3c(C)nc(N)nc3n(C3CCC(OCCO)CC3)c2=O)cn1 (centres undefined)', 'class 1'),
  ('CC1COC2(CCN(c3nc(=O)c4cc(C(F)(F)F)cc([N+](=O)[O-])c4s3)CC2)O1 (centres undefined)', 'class 0'),
  ('CC(=O)OCC(=O)[C@@]1(O)[C@H](C)C[C@H]2[C@@H]3C=C(C)C4=Cc5c(cnn5-c5ccccc5)C[C@]4(C)[C@@H]3[C@@H](O)C[C@@]21C', 'class 1'),
  ('C[C@@H]1CN(CC(=O)Nc2ccc3c(c2)Cc2cccc(-c4cc(=O)cc(N5CCOCC5)o4)c2S3)C[C@H](C)O1', 'class 1'),
  ('CCCn1c(=O)c2[nH]c(-c3cnn(Cc4cccc(C(F)(F)F)c4)c3)nc2n(CC)c1=O', 'class 0'),
  ('NC(=O)Nc1cc(-c2cccc(F)c2)sc1C(=O)N[C@H]1CCCNC1', 'class 1'),
  ('CNC(=O)c1c(F)cccc1Nc1nc(Nc2cc3c(cc2OC)CCN3C(=O)CN(C)C)nc2[nH]ccc12', 'class 1'),
  ('CC(C)(C)NC(=O)[C@H]1CN(Cc2cccnc2)CCN1C[C@@H](O)C[C@@H](Cc1ccccc1)C(=O)N[C@H]1c2ccccc2C[C@H]1O', 'class 1'),
  ('CCCCc1nc2cc(C=CC(=O)NO)ccc2n1CCN(CC)CC', 'class 1'),
  ('COCCn1c2c([n+](Cc3cnccn3)c1C)C(=O)c1ccccc1C2=O', 'class 1'),
  ('CN(C)c1nc(Cc2ccc(NC(=O)c3ccc4ccccc4c3)cc2)nc(Cl)c1CC(=O)O', 'class 0'),
  ('Cc1[nH]c2ccccc2c1CCNCc1ccc(C=CC(=O)NO)cc1', 'class 1'),
  ('Nc1nc(Nc2ccc(S(N)(=O)=O)cc2)nn1C(=O)c1c(F)cccc1F', 'class 1'),
  ('NC1(Cc2ccc(Cl)cc2)CCN(c2ncnc3[nH]ccc23)CC1', 'class 1'),
  ('O=C(c1cncc(Br)c1)N1CCC(N2CCCC2)CC1', 'class 0'),
  ('Cc1cn2c(-c3cn[nH]c3)cnc2c(Nc2ccc(C(=O)N3CCNCC3)cc2F)n1', 'class 1');

* * *

assay: qHTS of pediatric cancer cell lines to identify multiple opportunities for drug repurposing: Primary screen for control Hh wild type fibroblast cells (AID 1347106); conditions: Hh wild-type fibroblast viability, CellTiter-Glo luminescence, 48 h; series mostly up to 46 µM; also: nearly all actives have a fitted effect of over 55% in size
Records with an inconclusive call do not appear. Active and inactive are the calls of the source. The call rests on the fitted dose curve; in most records, active means well fitted cell-killing curve with a large enough effect; inconclusive means small, poorly fitted or top-dose-only effect; inactive means flat fitted curve, though single readings scatter.
Possible outcomes: y for active, n for inactive

INSERT INTO measurements (entry_smiles, assigned_label) VALUES
  ('O=c1[nH]nc(Sc2ncc([N+](=O)[O-])s2)n1-c1ccc2c(c1)OCCO2', 'y'),
  ('C=CC(=O)Nc1cccc(Oc2nc(Nc3ccc(N4CCN(C)CC4)cc3OC)ncc2Cl)c1', 'n'),
  ('COc1cccc(Nc2c(C(N)=O)cnc3c(C)cc(S(=O)(=O)c4cccc(C(=O)N(C)C)c4)cc23)c1', 'n');

* * *

test: qHTS of pediatric cancer cell lines to identify multiple opportunities for drug repurposing: Primary screen for SK-N-SH cells (AID 1347098); settings: SK-N-SH viability, CellTiter-Glo luminescence, 48 h; series mostly up to 57 µM; also: nearly all actives have a fitted effect of over 65% in size
Records with an inconclusive call do not appear. Activity calls are given as the source filed them. The call rests on the fitted dose curve; in most records, active means well fitted cell-killing curve with a large enough effect; inconclusive means small, poorly fitted or top-dose-only effect; inactive means no such curve, though single readings can be large or run the other way.
Outcome codes: active, inactive

INSERT INTO assay_data (molecule, assigned_label) VALUES
  ('CC1COC2(CCN(c3nc(=O)c4cc(C(F)(F)F)cc([N+](=O)[O-])c4s3)CC2)O1 (stereo unspecified)', 'inactive'),
  ('CC1(C)O[C@@H]2C[C@@H]3[C@H]4C[C@@H](F)C5=CC(=O)C=C[C@]5(C)[C@@]4(F)[C@@H](O)C[C@]3(C)[C@]2(C(=O)CO)O1', 'inactive'),
  ('COc1cccc2c(NCc3ccccc3)nc(-n3c(N)nc4ccccc43)nc12', 'active'),
  ('CC(C)c1noc(N2CCC(COc3ccc(-c4ccc(S(C)(=O)=O)cc4)nc3)CC2)n1', 'inactive'),
  ('C=CC(=O)N1CCC[C@@H](n2nc(-c3ccc(Oc4ccccc4)cc3)c3c(N)ncnc32)C1', 'active'),
  ('OCc1ccc(-c2ccc(-c3ccc(CO)s3)o2)s1', 'active'),
  ('COc1cccc(-c2ccc(NC(=O)C3=C(C(=O)O)CCC3)c(F)c2)c1', 'active'),
  ('Cc1coc2c1C(=O)C(=O)c1c-2ccc2c1CCCC2(C)C', 'inactive'),
  ('C1Cc2[nH]nc(-c3nn[nH]n3)c2C1', 'inactive'),
  ('O=C(C=Cc1cccnc1)NCCCCC1CCN(C(=O)c2ccccc2)CC1', 'active'),
  ('CC1(C)CC(=O)c2c(C(F)(F)F)nn(-c3ccc(C(N)=O)c(NC4CCC(OC(=O)CN)CC4)c3)c2C1 (stereo unspecified)', 'active'),
  ('CC(C)c1cnn2c(NCc3ccccc3)cc(N[C@@H](CO)[C@H](O)CO)nc12', 'active'),
  ('O=C(NC1CCNCC1)c1[nH]ncc1NC(=O)c1c(Cl)cccc1Cl', 'active'),
  ('CC(C)c1ccc(Cn2ccc3c4c(N)nc(NC5CC5)nc4ccc32)cc1', 'active'),
  ('Cc1cc(N2CCOCC2)cc2[nH]c(-c3c(NC[C@@H](O)c4cccc(Cl)c4)cc[nH]c3=O)nc12', 'active'),
  ('Cc1ccc(CN2CCNCC2)cc1NC(=O)CNc1ccc(F)c(F)c1', 'active'),
  ('CC(C)(C)c1cc(NC(=O)Nc2ccc(-c3cn4c(n3)sc3cc(OCCN5CCOCC5)ccc34)cc2)no1', 'inactive'),
  ('CN1CC[C@@H](c2c(O)cc(O)c3c(=O)cc(-c4ccccc4Cl)oc23)[C@@H](O)C1', 'active'),
  ('COc1ccc(-c2cc3c(C)nc(N)nc3n(C3CCC(OCCO)CC3)c2=O)cn1 (stereo unspecified)', 'active'),
  ('O=C(CCCCCCC(=O)Nc1ccc([C@H]2O[C@@H](CSc3nc(-c4ccccc4)c(-c4ccccc4)o3)C[C@@H](c3ccc(CO)cc3)O2)cc1)NO', 'active'),
  ('O=C(O)CO.[NH2-].[NH2-].[Pt+2]', 'inactive'),
  ('COc1cc(=C2C=c3ccccc3=N2)[nH]c1=Cc1[nH]c(C)cc1C', 'active'),
  ('O=C(O)c1ccc2c(c1)nc(Nc1cccc(Cl)c1)c1ccncc12', 'active'),
  ('Cc1nc(N)ncc1-c1nc(N2CCOCC2)c2sc(C(C)(C)O)cc2n1', 'active'),
  ('C#Cc1cccc(Nc2ncnc3cc(OC)c(OCCCCCCC(=O)NO)cc23)c1', 'active'),
  ('Cc1cc(Nc2cc(CN3CCOCC3)c3nc(C)c(Cc4ccc(Cl)cc4F)n3n2)n[nH]1', 'active'),
  ('Cc1ccc(C(=O)Nc2cccc(C(F)(F)F)c2)cc1-c1ccc2nc(NCCN3CCOCC3)ncc2c1', 'active'),
  ('CN1CCC(CNc2ccc3ncc(-c4cccc(OC(F)(F)F)c4)n3n2)CC1', 'active'),
  ('CC(=O)OCCN1C(=O)c2c(C)nc3ccc(S(=O)(=O)N4CCOCC4)cc3c2C1=O', 'inactive'),
  ('CCC[C@H](NC(=O)C(C#N)=Cc1cccc(Br)n1)c1ccccc1', 'active'),
  ('COC(=O)C[C@](O)(CCCC(C)(C)O)C(=O)O[C@@H]1C(OC)=C[C@]23CCCN2CCc2cc4c(cc2[C@H]13)OCO4', 'inactive');

Cited source: PubChem BioAssay (NCATS)
